Test system: M-07e cells
Test: M-07e cellular assay (SCF-mediated cell proliferation)
Format: cell-based
Settings: Homo sapiens, 72 hours, CellTiter Glo
pEC50: −log10 of the molar value.
property: pEC50

Known results for compounds:
**Q:** Give recorded pEC50. Cc1ccc(-c2ncc(C3CC3)cn2)cc1NC(=O)c1cnc(-c2ccc3c(c2)CC(=O)N3)o1
**A:** > 7.00

**Q:** Tell me measured pEC50 for Cc1ccc(-c2noc([C@H]3C[C@@H]3F)n2)cc1NC(=O)c1cnn2ccc(N3CC4(COC4)C3)cc12 please.
**A:** > 7.00

**Q:** Provide one value: measured pEC50 of Cc1ccc(-c2noc([C@H]3C[C@@H](OC(C)C)C3)n2)cc1NC(=O)c1cnn2ccc(N3CC4(CN(CC(F)(F)F)C4)C3)cc12
**A:** > 7.00

***
**Q:** For the compound Cc1ccc(-c2cnc(C3CC3)nc2)cc1NC(=O)c1cnn2ccc(N3CC4(C3)CC(O)(C(F)F)C4)cc12 , give its measured pEC50 value.
**A:** > 7.00

**Q:** Tell me pEC50 reported for Cc1ccc(-c2noc([C@H]3C[C@@H]3F)n2)cc1NC(=O)c1cnn2ccc(-c3ccc(N4CC(F)(F)C4)nc3C)cc12
**A:** > 7.00

**Q:** For the compound Cc1ncc(-c2noc([C@H]3CN(CC(F)(F)F)[C@@H]3C)n2)cc1NC(=O)c1cnn2ccc(N3CC4(C3)CC(O)(C(F)F)C4)cc12 , report pEC50.
**A:** 6.00 to 7.00
